Data origin: patent US20180355059A1

target: T1, recombinant cyno monkey PCSK9 protein (cyno monkey, UniProt A8T666 31-692 (rhesus entry), limits assumed, biotinylated in the ELISA assays); experiment: ELISA; antibody 6.67 nM
T1 construct: also called cyno PCSK9; Cyno Monkey PCSK9-His
T1 sequence (A8T666 31-692 limits assumed): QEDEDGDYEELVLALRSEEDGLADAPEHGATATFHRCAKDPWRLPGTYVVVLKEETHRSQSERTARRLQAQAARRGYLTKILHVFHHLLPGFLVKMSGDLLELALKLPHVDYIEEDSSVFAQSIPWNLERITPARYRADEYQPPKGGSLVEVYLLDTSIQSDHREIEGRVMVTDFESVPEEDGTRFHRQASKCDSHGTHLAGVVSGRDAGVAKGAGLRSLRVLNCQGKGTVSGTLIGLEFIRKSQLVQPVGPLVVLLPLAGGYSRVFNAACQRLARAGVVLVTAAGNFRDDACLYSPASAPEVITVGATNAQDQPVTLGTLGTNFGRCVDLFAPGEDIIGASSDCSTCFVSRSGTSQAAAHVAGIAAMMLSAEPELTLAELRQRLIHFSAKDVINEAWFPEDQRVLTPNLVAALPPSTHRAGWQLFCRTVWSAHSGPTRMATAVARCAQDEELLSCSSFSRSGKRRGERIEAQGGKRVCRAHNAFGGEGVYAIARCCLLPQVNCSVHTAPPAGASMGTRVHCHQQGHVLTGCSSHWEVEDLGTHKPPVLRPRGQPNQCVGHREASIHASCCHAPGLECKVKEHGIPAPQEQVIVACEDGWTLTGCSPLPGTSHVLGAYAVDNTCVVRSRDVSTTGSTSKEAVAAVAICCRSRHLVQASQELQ
Item-by-item account of OD450 nm
# output: bare number, implied unit OD450 nm

Lab book: OD450 nm of 76A1B11, fully human anti-PCSK9 antibody (antibody, human IgG1, V domains shown) VH: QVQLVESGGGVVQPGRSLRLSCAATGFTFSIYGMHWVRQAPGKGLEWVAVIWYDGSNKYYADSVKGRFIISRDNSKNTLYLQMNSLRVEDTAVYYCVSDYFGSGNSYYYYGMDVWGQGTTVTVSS VL: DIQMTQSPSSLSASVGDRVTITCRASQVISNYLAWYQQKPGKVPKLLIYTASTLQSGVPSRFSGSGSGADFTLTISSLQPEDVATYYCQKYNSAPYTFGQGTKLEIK noted as 3

Record 139G1C5, fully human anti-PCSK9 antibody (antibody, human IgG1, V domains shown) VH: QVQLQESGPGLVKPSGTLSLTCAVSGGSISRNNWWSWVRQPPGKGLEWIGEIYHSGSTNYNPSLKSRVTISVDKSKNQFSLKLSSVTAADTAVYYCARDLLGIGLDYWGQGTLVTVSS VL: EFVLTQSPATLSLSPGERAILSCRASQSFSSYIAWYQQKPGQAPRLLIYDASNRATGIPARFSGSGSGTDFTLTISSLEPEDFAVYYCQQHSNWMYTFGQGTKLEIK . Reported OD450 nm: 3.01

152G2F7, fully human anti-PCSK9 antibody (antibody, human IgG1, V domains shown) VH: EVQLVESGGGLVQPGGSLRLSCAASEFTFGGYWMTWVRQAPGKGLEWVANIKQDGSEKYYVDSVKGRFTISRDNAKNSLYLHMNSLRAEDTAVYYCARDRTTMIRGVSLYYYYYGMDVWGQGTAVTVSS VL: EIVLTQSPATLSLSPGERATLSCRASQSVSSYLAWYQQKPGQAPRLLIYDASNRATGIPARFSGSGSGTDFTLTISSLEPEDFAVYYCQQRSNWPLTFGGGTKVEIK has a reported OD450 nm of 2.89

Recorded OD450 nm (binder 74C10A8, fully human anti-PCSK9 antibody (antibody, human IgG1, V domains shown) VH: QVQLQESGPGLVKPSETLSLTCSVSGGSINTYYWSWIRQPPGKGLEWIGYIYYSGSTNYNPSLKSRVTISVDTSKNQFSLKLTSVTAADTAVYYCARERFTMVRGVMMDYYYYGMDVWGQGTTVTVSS VL: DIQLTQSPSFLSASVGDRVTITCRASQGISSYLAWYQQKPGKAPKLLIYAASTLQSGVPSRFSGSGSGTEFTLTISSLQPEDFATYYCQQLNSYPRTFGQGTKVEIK ): 2.73
